Value source: paper PMC2621304

- systemName: Rat AhR (Rattus norvegicus, UniProt P41738)
- Sequence (P41738 10-853): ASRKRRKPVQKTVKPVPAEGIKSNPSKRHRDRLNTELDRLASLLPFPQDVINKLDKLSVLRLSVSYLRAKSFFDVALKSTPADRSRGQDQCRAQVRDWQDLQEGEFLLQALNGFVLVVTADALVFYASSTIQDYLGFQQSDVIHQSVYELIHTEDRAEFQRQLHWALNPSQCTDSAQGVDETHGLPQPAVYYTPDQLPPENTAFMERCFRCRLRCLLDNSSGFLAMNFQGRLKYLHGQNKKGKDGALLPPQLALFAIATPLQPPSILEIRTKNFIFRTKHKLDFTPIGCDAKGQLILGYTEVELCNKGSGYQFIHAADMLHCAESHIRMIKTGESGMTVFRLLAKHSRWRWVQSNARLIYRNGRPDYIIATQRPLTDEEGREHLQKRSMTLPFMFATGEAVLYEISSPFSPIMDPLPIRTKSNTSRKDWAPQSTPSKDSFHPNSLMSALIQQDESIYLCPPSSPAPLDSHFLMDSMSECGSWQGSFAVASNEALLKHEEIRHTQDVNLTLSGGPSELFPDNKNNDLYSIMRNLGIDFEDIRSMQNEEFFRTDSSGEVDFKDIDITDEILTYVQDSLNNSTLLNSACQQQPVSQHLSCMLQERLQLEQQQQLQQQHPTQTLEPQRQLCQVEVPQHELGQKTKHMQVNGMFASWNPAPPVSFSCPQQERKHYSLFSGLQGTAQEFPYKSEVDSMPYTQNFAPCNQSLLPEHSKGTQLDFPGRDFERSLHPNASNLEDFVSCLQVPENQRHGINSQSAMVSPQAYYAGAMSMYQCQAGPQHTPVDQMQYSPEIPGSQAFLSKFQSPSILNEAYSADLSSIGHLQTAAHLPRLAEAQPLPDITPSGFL
- experimentalProtocol: [3H]-TCDD saturation binding, recombinant rat AhR in Sf9 cytosol
- assayConditions: Kd for TCDD, recombinant rat AhR, MOI of 0.1, n=6 independent determinations
pKd: −log10 of the molar value.
measurementName: pKd

> print(dat)
                                   compound                                systemname  measvalue
1  Clc1cc2c(cc1Cl)Oc1cc(Cl)c(Cl)cc1O2 [TCDD, 2,3,7,8-tetrachlorodibenzo-p-dioxin]  Rat AhR (Rattus norvegicus, UniProt P41738)       8.87
